Molecular target: T1, huIgG1 monoFc tagged GALV gp70 protein (residues 42-474) (Gibbon ape leukemia virus, UniProt P21415 42-474)
T1 construct: also called gp70 (42-474)
T1 sequence: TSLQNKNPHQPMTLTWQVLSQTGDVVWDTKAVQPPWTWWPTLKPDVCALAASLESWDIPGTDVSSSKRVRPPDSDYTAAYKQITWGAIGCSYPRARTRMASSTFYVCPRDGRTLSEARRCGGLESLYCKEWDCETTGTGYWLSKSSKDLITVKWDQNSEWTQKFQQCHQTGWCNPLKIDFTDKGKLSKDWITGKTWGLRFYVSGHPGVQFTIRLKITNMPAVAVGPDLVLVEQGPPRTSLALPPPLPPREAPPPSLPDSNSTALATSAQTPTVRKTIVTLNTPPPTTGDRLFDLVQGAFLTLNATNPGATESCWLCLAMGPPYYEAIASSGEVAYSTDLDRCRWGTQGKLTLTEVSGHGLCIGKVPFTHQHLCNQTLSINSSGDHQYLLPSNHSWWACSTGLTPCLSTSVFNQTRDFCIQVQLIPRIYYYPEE
Assay: BLI Octet Red96; antibody on AMC biosensor, 100 nM monoFc-gp70(42-474) analyte
The binders listed here are annotated with their pKd.
pKd (log units): -log10 of the concentration in mol/L.

Q: State its pKd for this binder: 9G11 (antibody, V domains shown, Anti-GALV gp70; One id for the hybridoma supernatant and the recombinant murine IgG2a antibody; also called 9G11-HC / 9G11-LC) VH: QVQLQQPGAELVRPGSSVKLSCKASGYTFTNYWMDWVKQRPGQGLEWIGHIYPSDSETHYIQKFKDKATLTVDKSSNTAYMQLSSLTSEDSAVYYCARDYYWGQGTTLTVSS VL: QAVVTQESALTTSPGETVTLTCRSSTGAVTTSNYANWVQEKPDHLFTGLIGGTNNRAPGVPARFSGSLIGDKAALTITGAQTEDEAIYFCALWYSSQLVFGGGTKLTVLQ
A: 9.15

Q: State its pKd for this binder: 40A3 (antibody, V domains shown, Anti-GALV gp70; One id for the hybridoma supernatant and the recombinant murine IgG2a antibody; also called 40A3-HC / 36H3-LC) VH: DVQLQESGPDLVKPSQSLSLTCTVTDFSITSDYTWHWVRQFPGNKLEWMAYIHYSGGTNYNPSLRSRISITRDTSKNQFFLHMNSVTTEDTATYYCLYYGSRDAVDYWGQGTSVTVSS VL: QIVLTQSPAIMSASPGEKVTMTCSTSSSVTYMHWYQQKSGTSPKRWIYDTSKLASGVPARFSGSGSGTSYSLTISSMEAEDAATYYCQQWSSSPYTFGGGTKLEIK
A: 11.28

Q: State its pKd for this binder: 40A6 (antibody, V domains shown, Anti-GALV gp70; One id for the hybridoma supernatant and the recombinant murine IgG2a antibody; also called 40A6-HC / 40A6-LC) VH: EVQLVESGGGLVKPGGSLKLSCAASGFTFSSYVLSWVRQIPEKRLEWVATINSGGSYTYYPDSVKGRFTISRDNAKNTLYLQMSSLRSEDTAIYYCARHLIYYDYDGYYFDTWGQGTSLTVSS VL: DVVMTQTPLSLPVSLGDQASISCRSSQTLVHSNGNIYLHWYLQKPGQSPKLLIYKVSNRFSGVPDRFSGSGSGTDFTLKISRVETEDLGIYFCSQTTHVPPTFGGGTKLEIK
A: 10.76

Q: State its pKd for this binder: 8G8 (antibody, V domains shown, Anti-GALV gp70; One id for the hybridoma supernatant and the recombinant murine IgG2a antibody; also called 8G8-HC2 / 8G8-LC2) VH: QVQLQQPGAELVRPGSSVKLSCKASGYTFTNYWMDWVKQRPGQGLEWIGNIYPSDSETHYNQNFKDKATLTVDKSSSTAYMQLSSLTSEDSAVYYCARDYYWGQGTTLTVSS VL: QAVVTQESALTTSPGETVTLTCRSSTGAVTRSNYANWVQEKPDHLFTGLIGGTNNRALGVPARFSGSLIGDKAALTITGAQTEDEAIYFCALWYSNHLVFGGGTKLTVLQ
A: 9.71

Q: State its pKd for this binder: 2D3 (antibody, V domains shown, Anti-GALV gp70; One id for the hybridoma supernatant and the recombinant murine IgG2a antibody; also called 2D3-HC1 / 2D3-LC1) VH: QVQLQQPGAELVRPGSSVKLSCKASGYTFTNYWMDWVKQRPGQGLEWIGNIYPSDSETHYNQKFRDKATLTVDKPSSTAYMQLSSLTSEDSAVYYCARDYYWGQGTTLTVSS VL: QAVVTQESALTTSPGETVTLTCRSSTGAVTTSNYANWVQEKPDHLFTGLIGGTNNRALGVPARFSGSLIGDKAALTITGAQIEDEAIYFCALWYSNHLVFGGGTKLTVLQ
A: 8.77
